These data points were gathered from paper PMC5540273.

- System: PRKD1
EXPERIMENTAL_ENDPOINT: Kd

## Task State the recorded Kd for this entry: Cc1cc(Nc2nc(-c3cccc(C)n3)nc3ccccc23)ccn1 [GW872411]
## Result 6.1 nM

* * *

- System: MYLK4
EXPERIMENTAL_ENDPOINT: Kd

## Task State the recorded Kd for this entry: Cc1ccc(-c2ccc3c(ccc4sc5c(c43)NC[C@@H](C)N=C5N(C)C)n2)cn1
## Result > 10 µM

* * *

- Test system: CDKL3
- TEST_PARAMETERS: concentration: 1 μM, replicates: in singlicate; n = 1
Note to self: values exactly at 3% are rule met. So %Inh at or above 3% is rule met, below is rule not met.

Below, 6 compounds whose answers are already recorded.
# COMPOUND, LABEL_CLASS
rows = [
    ("COc1cccc(C2=C(N(C)c3ccccc3)C(=O)NC2=O)c1", "rule not met"),
    ("COc1cc(Nc2ccnc3ccc(C(F)(F)F)cc23)cc(OC)c1OC", "rule met"),
    ("Cc1cccc(-c2cc(-c3c[nH]nc3-c3ccccn3)ccn2)c1", "rule not met"),
    ("Nc1nc(-c2ccccc2F)c(-c2ccnc3ccccc23)s1", "rule not met"),
    ("COc1cc(Nc2nccc(N3CCC(NC(=O)C4COc5ccccc5O4)C3)n2)cc(OC)c1OC (stereo not drawn)", "rule not met"),
    ("CCC(=O)c1c(-c2ccccc2)c2cc(Cl)ccc2c(=O)n1Cc1cc(S(C)(=O)=O)n(CC(F)F)n1", "rule not met"),
]

## Task Tell me whether %Inh is at least 3% here: Cn1c(=O)c(F)c(Nc2ccc(I)cc2F)c2c(=O)n(OC[C@H](O)CO)cnc21
## Result rule met

## Task Tell me whether %Inh is at least 3% here: COc1cc2nccc(Nc3cccc(Oc4ccccc4)c3)c2cc1OC.Cl
## Result rule not met

* * *

- System: CTK
- Construct: gene MATK
- TEST_PARAMETERS: concentration: 1 μM, replicates: in singlicate; n = 1
EXPERIMENTAL_ENDPOINT: %Inh (%)
The reply should be a number in %, with the unit left off.

# SMILES_STRING, TARGET_OF_ASSAY, %Inh (%)
measured = [
    ("C[C@@H]1CC[C@H](C(=O)NC2CCCCC2)CN1c1cc(-c2ccc3c(N)n[nH]c3c2)nc(N)n1", "CTK", 0),
    ("CCn1c(-c2nonc2N)nc2ccccc21", "CTK", 31),
    ("Cc1cccc(-c2nc(Nc3ccc4c(cnn4C)c3)c3ccccc3n2)n1", "CTK", 4),
    ("COc1cc2ncn(-c3cc(OCc4ccncc4)c(C(N)=O)s3)c2cc1OC", "CTK", 0),
]

Next:
## Task State the recorded %Inh for this entry: Nc1nccc2scc(-c3ccc4c(c3)CCN4C(=O)Cc3ccccc3)c12
## Result 0

* * *

- System: RIOK3
- TEST_PARAMETERS: concentration: 1 μM, replicates: in singlicate; n = 1
EXPERIMENTAL_ENDPOINT: %Inh (%)
The reply should be a number in %, with the unit left off.

Example entries and their recorded answers appear below.
# SMILES_STRING, VALUE_OBSERVED
records = [
    ("CN1C(=O)C(Nc2ccccc2)=C(c2ccccc2)C1=O", 0),
    ("Cn1c(=O)c(F)c(Nc2ccc(I)cc2F)c2c(=O)n(OC[C@H](O)CO)cnc21", 23),
    ("CCS(=O)(=O)c1ccc(OC)c(Nc2ncc(-c3ccc(F)cc3)o2)c1.Cl", 29),
    ("COc1ccc(-c2coc3ccc(-c4nnc(SCc5cccc(C#N)c5)o4)cc23)cc1", 11),
    ("Nc1nc(-c2ccccc2F)c(-c2ccnc3ccccc23)s1", 25),
]

## Task Please provide the recorded %Inh for CCc1nc(-c2cccc(C)c2)c(-c2ccncc2)s1 , tested on RIOK3.
## Result 12

## Task Please provide the recorded %Inh for Cc1cccc(-c2nc(Nc3ccc4c(cnn4C)c3)c3ccccc3n2)n1 , tested on RIOK3.
## Result 0

## Task Please provide the recorded %Inh for Cc1c(Cn2c(C)nn3c(=O)cc(N4CCO[C@H](C)C4)nc23)cccc1C(F)(F)F , tested on RIOK3.
## Result 27
